System: CP256
Assay: qHTS profiling for inhibitors of Plasmodium falciparum proliferation (AID 504749); also: nearly all actives have a fitted effect of over 60% in size
Settings: P. falciparum in erythrocytes, SYBR Green DNA, 72 h; series mostly up to 28.7 µM
Records with an inconclusive call do not appear. Active and inactive are the calls of the source. Calls follow the shape of the dose curve; as a rule, active = well fitted inhibition curve with a large enough effect; inconclusive = small, poorly fitted or top-dose-only effect; inactive = flat fitted curve, though single readings scatter.
Labels: active, inactive

Compound	Group Label
C=C1/C(=C\C=C2/CCC[C@]3(C)[C@@H]([C@H](C)CCCC(C)(C)O)CC[C@@H]23)C[C@@H](O)C[C@@H]1O	inactive
CC(/C=C1\SC(=S)N(CC(=O)O)C1=O)=C\c1ccccc1	inactive
CN1C[C@H](C(=O)N[C@]2(C)O[C@@]3(O)C4CCCN4C(=O)[C@H](Cc4ccccc4)N3C2=O)C[C@@H]2c3cccc4[nH]cc(c34)C[C@H]21 (some centres not stated)	active
CN1C(=O)CCC1c1cccnc1 (configuration not stated)	inactive
N[C@H](Cc1ccc(O)c(O)c1)C(=O)O	inactive
C[C@@]12C(=O)OC(=O)[C@]1(C)[C@H]1CC[C@@H]2O1	active
C[C@@H]1[C@H](O)[C@@H](C)/C=C/C=C/C=C/C=C/C=C/C=C/C=C/[C@H](O[C@@H]2O[C@H](C)[C@@H](O)[C@H](N)[C@@H]2O)C[C@@H]2O[C@](O)(C[C@@H](O)C[C@@H](O)[C@H](O)CC[C@@H](O)C[C@@H](O)CC(=O)O[C@H]1C)C[C@H](O)[C@H]2C(=O)O	inactive

* * *

Assay: Counterscreen qHTS for small molecule stabilizers of the endoplasmic reticulum resident proteome: GLuc-NoTag assay (AID 1508627)
Details: Gaussia luciferase NoTag secretion counterscreen, luminescence, thapsigargin 100 nM for final 4 h; series mostly up to 76.4 µM
Results filed as inconclusive are left out. Active and inactive are the calls of the source. Calls come from the whole dose curve; as a rule, active = well fitted inhibition curve with a large enough effect; inconclusive = small, poorly fitted or top-dose-only effect; inactive = no such curve, though single readings can be large or run the other way.
Labels: active, inactive

Compound Smiles	Group Label
COc1ccccc1-c1ccc2ncnc(N3CCN(C)CC3)c2c1	active
Clc1ccccc1-c1nc(N2CCNCC2)c2ccccc2n1	inactive
O=c1cnc2cnc(N3CCNCC3)nc2n1Cc1cccs1	inactive
CN1CCN(c2ncncc2-c2ccccc2C(F)(F)F)CC1	inactive
O=C(Nc1cccc(F)c1)N1CCC2(CC1)CCN(S(=O)(=O)c1ccccc1)CC2	inactive
CC(C)(c1cc(Br)c(O)c(Br)c1)c1cc(Br)c(O)c(Br)c1	inactive
CN1CCN(c2ncc3nc(-c4ccccc4)c(=O)n(-c4ccccc4)c3n2)CC1	inactive
COc1ccc(-n2c(=O)c(C)nc3cnc(N4CCNCC4)nc32)cc1	inactive
COc1ccc(CNc2ncnc3ccc(-c4ccccc4OC)cc23)c(OC)c1	inactive
COCCn1c(=O)c(CCc2ccccc2)nc2cnc(OC)nc21	inactive
Fc1ccc(Nc2ccnc(-c3ccccc3C(F)(F)F)n2)cc1	inactive

* * *

List of activity change, negative = inhibition values.
Assay: qHTS Assay for Lipid Storage Modulators (AID 1519); also: % is scaled to controls: 0 for no effect and ±100 for the full control effect
Settings: Drosophila S3 cells, BODIPY lipid droplet/cell ratio, laser cytometry; at 57.5 µM (top of the series); cells loaded with oleic acid
Records with an inconclusive call do not appear.

Compound Smiles	activity change, negative = inhibition / %
COc1ccc(C(=O)N2CCC3(CC2)CN(c2ccncc2)C3)cc1	-1.18
COc1ccc(-n2c(=O)c(-c3cccs3)nc3cnc(N4CCOCC4)nc32)cc1	5.16
CN(C)C(=O)c1ccc(-c2nc(NC3CCNCC3)c3ccccc3n2)cc1	4.99
O=C(c1ccncc1)N1CCC2(CC1)CN(c1cccc(-c3ccccc3)c1)C2	-2.24
COc1cccc(Cn2c(=O)cnc3cncnc32)c1	1.18
O=c1c(-c2cc(F)cc(F)c2)nc2cnc(N3CCOCC3)nc2n1Cc1cccs1	3.39
Cc1noc(C)c1C(=O)N1CCC2(CCCN(Cc3nccs3)C2)CC1	5.37
Cc1noc(C)c1-c1ccc2ncnc(NCc3cccnc3)c2c1	-3.3
CC(=O)NCCNc1cc(-c2ccccc2C)ncn1	3.34
O=C(Oc1ccccc1)N1CCC[C@@]2(CCN(c3ncccn3)C2)C1	4.5
O=c1c(-c2ccc(F)cc2)nc2cnc(N3CCNCC3)nc2n1C1CC1	2.85
